Reported TGI values for the following compounds.
Test system: SK-MEL-5 melanoma
Assay: NCI tumour cell line growth inhibition, 48 h

Below are worked cases with known answers.
COc1ccc(N=NC(=O)NC(CC(C)C)C(N)=O)cc1 (stereo not given)	> 100 µM
NC(CSSCC(N)=NCC12CC3CC(CC(C3)C1)C2)=NCC12CC3CC(CC(C3)C1)C2	36.5 µM
COC(=O)c1ccc(CN2C(=O)C(Cl)=C(Nc3cccc(Cl)c3C)C2=O)cc1	3.94 µM
O=C(/C=C/c1ccccc1F)c1ccc(Cl)c(Cl)c1	> 84.1 µM

Query compound follows.
// field: TGI; key: `COc1cc(/C=C/C(=O)/C=C/c2ccc(-n3ccnc3C)cc2)ccc1O` ; value = 11.9 µM
